assay: small-molecule microarray binders of probe aLefty2, primary screen, biochemical, biotinylated probe, 635/667 nm fluorescence (AID 1094); settings: higher = more signal;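 note: score merges spot fluorescence near 667 nm with spot signal-to-noise ratio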
Field: composite z-score. Provide a value for each of the compounds that follow.
Give the figure by itself; no unit, no explanation.

Query: Entry CCc1cc2c(nc1CC)CCN(CCC(C)=NOC(C)CN1CCCc3nc(C)c(C)cc31)C2 (stereo not given) : reported composite z-score = ?
Result: 0.696

Query: Entry "CO[C@H]1O[C@H](CO)[C@@H](OC(=O)Nc2ccc3c(c2)OCO3)[C@H](OC(=O)Nc2ccccc2-c2ccccc2)[C@@H]1OC(=O)Nc1ccccc1-c1ccccc1" : reported composite z-score = ?
Result: 0.0427

Query: Entry "CC(=O)OC[C@H]1O[C@H](CC=NOC[C@@H](C)[C@H](OCc2ccccc2)C(C)C)C=C[C@@H]1OC(C)=O" : reported composite z-score = ?
Result: -0.0345

Query: Entry Cc1cc2c(nc1C)CCCN2CC(C)ON=C1[C@H]2CCn3c(=O)n(-c4ccccc4)c(=O)n3[C@H]2[C@H](O)[C@@H]2O[C@H]12 (stereo not given in full) : reported composite z-score = ?
Result: -0.138

Query: Entry O[C@@H](Cc1ccccc1)[C@H]1C2C=CCCC(c3ccccc3)=C2CN1Cc1cccc(Cl)c1 (stereo not given in full) : reported composite z-score = ?
Result: -0.106

Query: Entry "O=C1C[C@@H](O)[C@@H](O)[C@@H]2[C@@H]3C(=O)N(c4ccc(F)cc4F)C(=O)[C@@H]3CC[C@@H]12" : reported composite z-score = ?
Result: 0.0424

Query: Entry "CC(C)[C@@H](OCc1ccccc1)[C@H](C)C=NO[C@H](C)c1cn([C@H](CO)Cc2ccccc2)nn1" : reported composite z-score = ?
Result: -0.153

Query: Entry COC(=O)C1(C)C=C2C(=C(c3ccccc3)C(=O)C2C)CN1 (stereo not given) : reported composite z-score = ?
Result: 0.498

Query: Entry COC(=O)[C@H](C)NC(=O)CCC1CC(OC(=O)NCCc2ccc(F)cc2)CC2(CCCC(COC(=O)NCCc3ccc(Cl)cc3)O2)O1 (stereo not given in full) : reported composite z-score = ?
Result: -0.0237

Query: Entry "CC(C)CON=C1[C@H]2CCn3c(=O)n(-c4ccccc4)c(=O)n3[C@H]2[C@H](O)[C@@H]2O[C@H]12" : reported composite z-score = ?
Result: -0.149

Query: Entry "O=C1[C@H]2[C@H]3[C@H](O)[C@H](O)CC(=NO[C@@H]4O[C@H](CO)[C@@H](O)[C@H](O)[C@H]4O)[C@H]3CC[C@H]2C(=O)N1Cc1ccccc1" : reported composite z-score = ?
Result: -0.0015

Query: Entry "O=C1[C@H]2[C@H]3[C@H](O)[C@H](O)CC(=NOC[C@@H](O)COCc4ccco4)[C@H]3CC[C@H]2C(=O)N1c1cccc(Oc2ccccc2)c1" : reported composite z-score = ?
Result: -0.172

Query: Entry CC(C)N1CC=CC23O[C@@H]4C=CCCOC(=O)C4[C@H]2C(=O)N(CCCCCCO)[C@@H]3C1=O (stereo not given in full) : reported composite z-score = ?
Result: -0.233

Query: Entry "CCOC(=O)NN=C1C[C@@H](O)[C@@H](O)[C@@H]2[C@@H]3C(=O)N(C(C)(C)C)C(=O)[C@@H]3CC[C@@H]12" : reported composite z-score = ?
Result: -0.0569

Query: Entry "CC(C)CN1CCc2nc(-c3ccccc3)c3c(c2CC1)CO[C@@H](C)C3" : reported composite z-score = ?
Result: 0.061

Query: Entry "CC(CCN1CCc2nc(-c3ccccc3)c(-c3ccccc3)cc2C1)=NOC[C@@H](C)[C@H](OCc1ccccc1)C(C)C" : reported composite z-score = ?
Result: -0.195

Query: Entry "COc1ccc([Si](C)(C)[C@@H]2[C@@H](CC(=O)N3CCC[C@H]3CO)O[C@]3(C(=O)N(Cc4cccc(N5CCC5=O)c4)c4ccccc43)[C@H]2C)cc1" : reported composite z-score = ?
Result: -0.0204

Query: Entry "C=CC[C@]1(C(=O)NCc2ccccc2)N=C(c2ccc(OCCCO)cc2)O[C@H]1c1ccccc1" : reported composite z-score = ?
Result: -0.0238

Query: Entry "Cc1ccc(S[C@]2(C(=O)O)CC(=O)N(Cc3ccccc3)[C@@H]2c2ccc(CO)cc2I)cc1" : reported composite z-score = ?
Result: -0.103

Query: Entry Cn1cccc1C(O)C1C=CC2C(=O)NC(=O)C2N1Nc1ccccn1 (stereo not given) : reported composite z-score = ?
Result: -0.19

Query: Entry "CCc1cc2c(nc1CC)CCN(CCC(C)=NOC[C@@H](O)[C@H]1O[C@@H]3OC(C)(C)O[C@@H]3[C@H]1O)C2" : reported composite z-score = ?
Result: -0.175

Query: Entry "C#CCCCON=C1C[C@@H](O)[C@@H](O)[C@@H]2[C@@H]3C(=O)N([C@@H](C)c4ccccc4)C(=O)[C@@H]3CC[C@H]12" : reported composite z-score = ?
Result: 0.0008

Query: Entry "CO[C@@H]1COC(=O)CC=C[C@@H](C)[C@H](OC)COC(=O)[C@H](COCc2ccccc2)NC(=O)CC=C[C@H]1C" : reported composite z-score = ?
Result: -0.185

Query: Entry "CCCNC(=O)OC[C@H]1O[C@H](CCON=C[C@@H](OC)[C@H](C)C=CCC(=O)OC)C=C[C@@H]1Oc1ccc(OC)cc1" : reported composite z-score = ?
Result: -0.0519

Query: Entry "C=C(CCCC)C(=O)CC[C@@H](OC(C)=O)c1cccc(OCCO)c1" : reported composite z-score = ?
Result: -0.193

Query: Entry "COCCCNC(=O)[C@@]1(Sc2ccc(C)cc2)CC(=O)N(Cc2ccccc2)[C@@H]1c1ccc(CO)cc1I" : reported composite z-score = ?
Result: 0.556

Query: Entry "C=CC[C@@H]1C=C[C@H](ON=C(C)CCN2CCc3nc(CC)c(CC)cc3C2)[C@@H](CO)O1" : reported composite z-score = ?
Result: 0.0522

Query: Entry "CO[C@@H]1COC(=O)CC=C[C@@H](C)[C@@H]2C=C[C@H](O)[C@@H](COC(=O)[C@H](C)NC(=O)CC=C[C@H]1C)O2" : reported composite z-score = ?
Result: -0.212

Query: Entry "COC(=O)[C@@]1(Cc2ccc(OC)cc2)[C@H]2c3cc(C(=O)N4CCCC4)n(Cc4cc(F)c(F)c(F)c4)c3C[C@H]2CN1C(=O)c1ccccc1" : reported composite z-score = ?
Result: 1.44

Query: Entry "CCOC(=O)NN=C1C[C@@H](O)[C@@H](O)[C@@H]2[C@@H]3C(=O)N(C[C@@H]4CCCO4)C(=O)[C@@H]3CC[C@@H]12" : reported composite z-score = ?
Result: -0.0458

Source: PubChem BioAssay
